- System Name: GST-tagged truncated human mutant G2019S LRRK2 (Homo sapiens, UniProt Q5S007, G2019S)
- Test Summary: LRRK2 G2019S Km ATP LanthaScreen assay
- Format: biochemical
- Measurement Conditions: 134 μM ATP (Km ATP), LRRKtide substrate, mean IC50 values; read-out: LRRK2 pIC50 (converted)

Compound: CC(C)(O)Cn1ncc(Nc2ncc3cc(Cl)c(N4C[C@H]5CC[C@@H](C4)[C@@]5(C)O)cc3n2)c1Cl
IC50 / nM: 5.09

Compound: Cc1cc2cnc(Nc3cnn(C45CC(C4)C5)c3Cl)nc2cc1N1CCN(C2COCC2O)CC1 (single isomer, unassigned) [Ex-5.12]
IC50 / nM: 5.17

Compound: CCn1ncc(Nc2ncc3cc(Cl)c(N4CCC(C)(O)CC4)cc3n2)c1F
IC50 / nM: 10.3

Compound: Cc1cc2cnc(Nc3cnn(C4CC4)c3C)nc2cc1N1CCN(C2COCC2O)CC1 (single isomer, unassigned)
IC50 / nM: 0.197

Compound: Cc1cc2cnc(Nc3cnn(C4CC4(F)F)c3C)nc2cc1N1CCN(C2(C)COCC2O)CC1 (single isomer, unassigned)
IC50 / nM: 0.31

Compound: CC1(N2CCN(c3cc4nc(Nc5cnn(C6CC6(F)F)c5Cl)ncc4cc3Cl)CC2)COCC1O (single isomer, unassigned) [Ex-6.2]
IC50 / nM: 0.08

Compound: OCC1CCN(c2cc3nc(Nc4cnn(CC(F)F)c4Cl)ncc3cc2Cl)C1 (stereo not shown)
IC50 / nM: 5.49

----------
- System Name: GST-tagged truncated human mutant G2019S LRRK2 (Homo sapiens, UniProt Q5S007, G2019S)
- Test Summary: LRRK2 G2019S Km ATP LanthaScreen assay
- Assay type: biochemical
- Measurement Conditions: 134 μM ATP (Km ATP), LRRKtide substrate, mean IC50 values; read-out: LRRK2 pIC50 (converted)
Parameter: IC50. Scope: all listed entries.
Measured Attribute: IC50 (nM)

Compound: Cc1c(Nc2ncc3cc(Cl)c(N4CCC(C)(O)CC4C)cc3n2)cnn1C1CC1 (single isomer, unassigned) [Ex-9.1]
Assay Value: 4.68

Compound: CN1CCN(c2cc3nc(Nc4cnn(C)c4Cl)ncc3cc2Cl)CC1 [Ex-11.1]
Assay Value: 11.7

Compound: Cc1cc2cnc(Nc3cnn(C)c3C)nc2cc1N1CCN(C2COCC2O)CC1 (single isomer, unassigned) [Ex-2.3]
Assay Value: 1.77

Compound: Cn1ncc(Nc2ncc3cc(Cl)c(N4CCN(C5(C)COC5)CC4)cc3n2)c1Cl [Ex-4.47]
Assay Value: 8.56

Compound: Cn1nc(Cl)cc1Nc1ncc2cc(Cl)c(N3CCN([C@@]4(C)COC[C@H]4O)CC3)cc2n1 (single isomer, unassigned)
Assay Value: 5.97

Compound: CC1CCN1c1cc2nc(Nc3cnn(C4CCN(C5(C)COC5)CC4)c3)ncc2cc1Cl (stereo not shown) [Ex-4.11]
Assay Value: 35.3

Compound: Cc1cc2cnc(Nc3cnn(C4CC4(F)F)c3C)nc2cc1N1CCN(C2COCC2O)CC1 (single isomer, unassigned) [Ex-5.2]
Assay Value: 0.45

----------
- System Name: GST-tagged truncated human mutant G2019S LRRK2 (Homo sapiens, UniProt Q5S007, G2019S)
- Test Summary: LRRK2 G2019S Km ATP LanthaScreen assay
- Assay type: biochemical
- Measurement Conditions: 134 μM ATP (Km ATP), LRRKtide substrate, mean IC50 values; read-out: LRRK2 pIC50 (converted)
# reported IC50; entries follow
Measured Attribute: IC50 (nM)

Compound: CCn1ncc(Nc2ncc3ccc(N4C(=O)[C@H]5CC[C@@H]4C5)nc3n2)c1C (single isomer, unassigned) [Ex-15.4]
Assay Value: 12.5
--
Compound: CC1(O)CCN(c2cc3nc(Nc4cnn(C5CC5)c4Cl)ncc3cc2Cl)CC1 [Ex-3.26]
Assay Value: 5.63
--
Compound: CC1CCC12CN(c1cc3nc(Nc4cnn(C5(C)CC5)c4Cl)ncc3cc1Cl)C2 (stereo not shown) [Ex-4.24]
Assay Value: 218
--
Compound: CC1(n2ncc(Nc3ncc4cc(Cl)c(N5CCC(N6CC(F)C6)CC5)cc4n3)c2Cl)CC1 [Ex-4.39]
Assay Value: 0.625
